- EXPERIMENT NOTES: CREB reporter modulators without forskolin, primary screen, cell-based, PC12, CRE-LacZ reporter, unstimulated (AID 1145)
- REPORTED CONDITIONS: no forskolin, luminescence, 4.5 h, higher = more signal, called active from +8 up or from −8 down
Label false if z-score falls below -0.2; label true in every other case.

compound=C=C(C(=O)CC[C@H](OC(=O)c1ccccc1-c1ccccc1C(=O)O)c1ccccc1OCCO)C(C)C category_label=true
compound=CCOC(=O)C=Cc1ccccc1O category_label=false
compound=CO[C@H]1O[C@H](CO)[C@@H](OC(=O)Nc2ccc(C#N)cc2)[C@@H]2OC(=O)[C@H](Cc3cccc(Br)c3)C/C=C/C[C@@H](Cc3cccc(Br)c3)C(=O)O[C@@H]12 category_label=false
compound=COC(=O)[C@@]1(Cc2ccc(OC)cc2)[C@H]2c3cc(C(=O)N4CCCC4)n(Cc4ccc(S(C)(=O)=O)cc4)c3C[C@H]2CN1C(=O)c1ccccc1 category_label=true
compound="C=CC1c2cc(O)c(OC)cc2CCN1Cc1ccc([N+](=O)[O-])o1 (configuration not stated)" category_label=false
compound=COCCOC(=O)N1C(=O)[C@@]2(c3cc(C#CC4=CCCCC4)ccc31)[C@H](c1ccc(O)cc1)N1[C@H](c3ccccc3)[C@H](c3ccccc3)OC(=O)[C@H]1[C@@H]2C(=O)NC[C@H](O)c1ccccc1 category_label=false
compound=O=C(O)[C@@H]1C[C@@H]2C(=O)N3CCC[C@H]3C(=O)N2[C@@H]1c1cccc(OCCO)c1 category_label=true

* * *

- EXPERIMENTAL TARGET: NADPH oxidase 5 (Homo sapiens)
- EXPERIMENT NOTES: NOX5-dependent H2O2 signal modulators, primary screen, NOX inhibitor project, cell-based, HEK293-NOX5, Amplex Red fluorescence (AID 1161)
- REPORTED CONDITIONS: HEK293-NOX5, ionomycin, 45 min, higher = more signal
PROPERTY LABEL: z-score

molecule=CCCCC(=C=CC[C@H](O)c1ccc(OCCO)cc1)C[C@H](O)COCc1ccccc1 property_label=z-score value=-2.05
molecule="CN1C(=O)C2C=CC(C(O)c3ccc(I)cc3)N(Nc3ccccc3)C2C1=O (centres undefined)" property_label=z-score value=-4.14
molecule="CN1C(=O)C2C=CC(C(O)c3cc(C(F)(F)F)cc(C(F)(F)F)c3)N(Nc3ccccc3)C2C1=O (centres undefined)" property_label=z-score value=-1.99
molecule=COC(=O)[C@@]1(Cc2ccc(F)cc2)[C@H]2c3cc(C(=O)N(C)C)n(Cc4ccc(O)c(OC)c4)c3C[C@H]2CN1C(=O)c1ccccc1 property_label=z-score value=-1.16
molecule=C=CCOC(=O)[C@H]1[C@@H]2C(=O)O[C@@H](c3ccccc3)[C@@H](c3ccccc3)N2[C@@H](c2ccc(OCCOC(=O)[C@H]3C[C@H]4C(=O)N[C@@H](CCCCNC(C)=O)C(=O)N4[C@H]3c3cccc(OCCO)c3)cc2)[C@]12C(=O)Nc1ccc(I)cc12 property_label=z-score value=-0.174
molecule="COC(=O)C1=CC(CCCO)=CC(c2ccc(CN3CCCC3)cc2)N(Cc2cc3c(cc2Br)OCO3)C=C1C(=O)OC (centres undefined)" property_label=z-score value=0.399
molecule=Cc1ccc(S[C@]2(C(=O)NC(C)C)CC(=O)N(Cc3ccccc3Cl)[C@@H]2c2ccc(CO)cc2)cc1 property_label=z-score value=-0.486
molecule="C=CCC(OC(C)=O)[C@@H]1[C@@H](N(Cc2ccc(-c3cccc(C(F)(F)F)c3)o2)C(=O)c2cccc3ccccc23)c2cc(OCCCO)ccc2N1C(=O)Cc1ccc(OC)cc1 (some centres undefined)" property_label=z-score value=-1.49
molecule=C=CCN1C(=O)[C@]2(O[C@H](CCO)[C@@H]([Si](C)(C)c3ccc(OC)cc3)[C@@H]2C)c2cc(NC(=O)c3ccc(OC)cc3)ccc21 property_label=z-score value=1.38
molecule=[N-]=[N+]=NCc1ccccc1[C@@H]1OC(c2ccc(OCCCO)cc2)=N[C@]1(Cc1ccccc1N=[N+]=[N-])C(=O)N1CCCCC1 property_label=z-score value=1.17
molecule="COc1cc(C(O)C2C=CC3C(=O)N(Cc4ccccc4)C(=O)C3N2n2cnnc2)cc(OC)c1OC (centres undefined)" property_label=z-score value=-0.665
molecule=CN(C)CCCCNC(=O)[C@H]1C[C@H]2C(=O)N[C@@H](CCCC[N+](C)(C)C)C(=O)N2[C@H]1c1ccc(O)cc1 property_label=z-score value=1.31
molecule=CC(=O)NCCCC[C@@H]1NC(=O)[C@H]2C[C@@H](C(=O)NCCCCCNC(=O)CS)[C@@H](c3cccc(OCCO)c3)N2C1=O property_label=z-score value=0.697
molecule=COCCCNC(=O)[C@@]1(c2ccc([N+](=O)[O-])cc2)CC(=O)N(C(C)C)[C@@H]1c1ccc(CO)cc1 property_label=z-score value=-0.0684
